System: Puccinia recondita tritici
METHOD: Leaf Rust of Wheat (PUCCRT), whole-plant fungicide test
Assay type: in vivo
RUN_CONDITIONS: Puccinia recondita, foliar, 24 h, 200 ppm on foliage, one-day protectant test, read-out: PUCCRT percent control of disease
# pest or weed control at 200 ppm per entry
REPORTED_METRIC: pest or weed control at 200 ppm

INSERT INTO assay_data (molecule, measured_on, value_reported) VALUES
  ('CC(Nc1ncnc2scc(Cl)c12)c1ccc(OCc2ccc(OC(F)(F)F)cc2)cc1 (stereo not drawn) [Compound 5]', 'Puccinia recondita tritici', '80 to 100%'),
  ('CC(Nc1ncnc2scc(Cl)c12)c1ccc(OCC(F)(F)F)cc1 (stereo not drawn) [Compound 73]', 'Puccinia recondita tritici', '80 to 100%'),
  ('COc1ccc(C(C)Nc2ncnc3scc(I)c23)cc1 (stereo not drawn) [Compound 70]', 'Puccinia recondita tritici', '0 to 49%'),
  ('COc1ccc(OCC(C)Nc2ncnc3scc(Cl)c23)cn1 (stereo not drawn) [Compound 53]', 'Puccinia recondita tritici', '80 to 100%'),
  ('CC(Nc1ncnc2scc(Cl)c12)c1ccc(C(F)(F)F)nc1 (stereo not drawn) [Compound 44]', 'Puccinia recondita tritici', '80 to 100%'),
  ('COc1ccc(OCC2CC2C(C)Nc2ncnc3scc(Cl)c23)cc1 (stereo not drawn) [Compound 86]', 'Puccinia recondita tritici', '80 to 100%'),
  ('CC(Nc1ncnc2scc(Cl)c12)c1ccc(C(F)(F)F)cc1 (stereo not drawn) [Compound 26]', 'Puccinia recondita tritici', '80 to 100%'),
  ('CC(Nc1ncnc2scc(Cl)c12)c1cnc(OCC(F)(F)F)s1 (stereo not drawn) [Compound 90]', 'Puccinia recondita tritici', '80 to 100%'),
  ('Clc1csc2ncnc(NC3CCCc4ccccc43)c12 (stereo not drawn) [Compound 10]', 'Puccinia recondita tritici', '0 to 49%');

---

Tested on: Erysiphe cichoracaerum
METHOD: Cucumber Powdery Mildew (ERYSCI), whole-plant fungicide test
Assay type: in vivo
RUN_CONDITIONS: Erysiphe, foliar, 24 h, 200 ppm on foliage, one-day protectant test, read-out: ERYSCI percent control of disease
# pest or weed control at 200 ppm per entry
REPORTED_METRIC: pest or weed control at 200 ppm

INSERT INTO results (compound, value_reported) VALUES
  ('COc1ccc(C(C)Nc2ncnc3scc(S(C)(=O)=O)c23)cc1 (centres unmarked)', '0 to 49%'),
  ('CC(Nc1ncnc2scc(Cl)c12)c1cc[nH]c1 (centres unmarked)', '0 to 49%'),
  ('CC(Nc1ncnc2scc(Br)c12)c1ccc(F)nc1 (centres unmarked)', '80 to 100%'),
  ('CC(Nc1ncnc2scc(Cl)c12)c1ccc(N2CCOCC2)cc1 (centres unmarked)', '80 to 100%'),
  ('CC(C)(C)OC(=O)c1ccc(CNc2ncnc3scc(Cl)c23)cc1', '0 to 49%');

---

Test system: Puccinia recondita tritici
METHOD: Leaf Rust of Wheat (PUCCRT), whole-plant fungicide test
Format: in vivo
RUN_CONDITIONS: Puccinia recondita, foliar, 24 h, 200 ppm on foliage, one-day protectant test, read-out: PUCCRT percent control of disease
REPORTED_METRIC: pest or weed control at 200 ppm

INSERT INTO results (molecule, reported_metric, value_reported) VALUES
  ('O[C@@H](CNc1ncnc2scc(Cl)c12)c1ccccc1', 'pest or weed control at 200 ppm', '80 to 100%'),
  ('COCC(Nc1ncnc2scc(Cl)c12)c1ccccc1 (centres unmarked)', 'pest or weed control at 200 ppm', '80 to 100%'),
  ('COc1cnc(C(C)Nc2ncnc3scc(Cl)c23)nc1 (centres unmarked)', 'pest or weed control at 200 ppm', '80 to 100%'),
  ('CC(Nc1ncnc2scc(Cl)c12)c1ccn(C(C)C)c1 (centres unmarked)', 'pest or weed control at 200 ppm', '0 to 49%'),
  ('CC(Nc1ncnc2scc(Cl)c12)c1ccc(OCl)nc1 (centres unmarked)', 'pest or weed control at 200 ppm', '80 to 100%');
